Target: Fc-fusion protein receptor ectodomain of BMPR-IB
Test: SPR (Biacore T100), receptor ectodomain-Fc on protein G chip, kinetic 1:1 fit; measurement 2
pKd: −log10 of the molar value.
MEASURED_METRIC: pKd

binder="recombinant human GDF-5 mutant I449V (ligand) APLATRQGKRPSKNLKARCSRKALHVNFKDMGWDDWIIAPLEYEAFHCEGLCEFPLRSHLEPTNHAVVQTLMNSMDPESTPPTCCVPTRLSPISILFIDSANNVVYKQYEDMVVESCGCR" measured_metric=pKd measured_number=10.59
binder="human GDF-5 mutant M412V (ligand) APLATRQGKRPSKNLKARCSRKALHVNFKDVGWDDWIIAPLEYEAFHCEGLCEFPLRSHLEPTNHAVIQTLMNSMDPESTPPTCCVPTRLSPISILFIDSANNVVYKQYEDMVVESCGCR" measured_metric=pKd measured_number=10.41
